# System Name: PTP-1B (Homo sapiens)
# Sequence (P18031 whole entry): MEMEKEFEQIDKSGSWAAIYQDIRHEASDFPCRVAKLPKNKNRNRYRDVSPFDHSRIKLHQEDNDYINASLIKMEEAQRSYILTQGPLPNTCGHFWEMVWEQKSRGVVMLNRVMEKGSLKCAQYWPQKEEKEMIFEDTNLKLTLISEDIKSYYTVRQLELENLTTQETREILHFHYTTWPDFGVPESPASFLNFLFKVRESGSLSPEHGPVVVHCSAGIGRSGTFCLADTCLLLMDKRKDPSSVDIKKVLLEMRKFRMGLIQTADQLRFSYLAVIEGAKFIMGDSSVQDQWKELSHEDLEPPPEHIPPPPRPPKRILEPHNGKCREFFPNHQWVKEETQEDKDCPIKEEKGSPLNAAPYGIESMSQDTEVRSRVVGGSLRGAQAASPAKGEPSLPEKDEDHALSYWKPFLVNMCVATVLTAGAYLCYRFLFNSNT
Measure Name: IC50

Look up IC50: CSc1scc2c1-c1nc(SCC(=O)C(C)(C)C)ncc1CC2 [Compound 1] > 100 µM

---

# System Name: MKP5-CD (catalytic domain of MKP5, residues 320-467) (Homo sapiens)
# Construct: The catalytic domain of MKP5 (MKP5-CD, residues 320-467) was inserted into a pET-28a vector; His-tag (N, cleaved yes); made in house; host or cells: E. coli BL21 (DE3)
# Sequence (Q9Y6W6 320-467): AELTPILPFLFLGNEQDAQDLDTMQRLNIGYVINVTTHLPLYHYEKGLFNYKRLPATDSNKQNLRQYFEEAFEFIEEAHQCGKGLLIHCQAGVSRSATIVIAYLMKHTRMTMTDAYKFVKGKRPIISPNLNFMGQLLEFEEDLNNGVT
# Test: Malachite green phosphatase assay of MKP5-CD with p38α MAPK phosphopeptide substrate
# Format: biochemical
# Condition Summary: resynthesized compound, p38α MAPK phosphopeptide substrate, FIG. 1E; read-out: IC50 against MKP5-CD
Measure Name: pIC50
Give bare numbers, as −log10 of the molar value.

Quick one: pIC50 for CSc1scc2c1-c1nc(SCC(=O)C(C)(C)C)ncc1CC2 ? 5.41

---

# System Name: MKP5-CD (Homo sapiens)
Measure Name: Kd (µM)
Give bare numbers, in µM.

So what does the record say about Kd for CSc1scc2c1-c1nc(SCC(=O)C(C)(C)C)ncc1CC2 [Compound 1] ? 1
